Data provenance is PubChem BioAssay AID1851.

Documented activity, negative = inhibition across a set of compounds
system-tested: Cytochrome P450 3A4 (Homo sapiens) (UniProt P08684)
Sequence (P08684 whole entry, looked up): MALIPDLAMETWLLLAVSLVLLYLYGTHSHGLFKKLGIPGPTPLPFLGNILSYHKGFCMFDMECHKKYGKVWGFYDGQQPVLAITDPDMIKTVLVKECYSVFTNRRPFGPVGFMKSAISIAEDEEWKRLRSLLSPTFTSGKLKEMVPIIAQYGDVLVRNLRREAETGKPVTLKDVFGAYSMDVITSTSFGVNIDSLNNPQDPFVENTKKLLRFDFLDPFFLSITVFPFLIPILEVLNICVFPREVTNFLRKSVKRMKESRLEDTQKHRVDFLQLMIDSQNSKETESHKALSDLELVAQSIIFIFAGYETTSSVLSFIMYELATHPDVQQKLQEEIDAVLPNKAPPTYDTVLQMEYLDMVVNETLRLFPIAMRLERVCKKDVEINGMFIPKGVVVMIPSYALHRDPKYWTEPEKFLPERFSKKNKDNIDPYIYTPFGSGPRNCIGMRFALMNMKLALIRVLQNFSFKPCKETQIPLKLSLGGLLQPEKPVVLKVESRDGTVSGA
assay-summary: Cytochrome panel assay with activity outcomes; also: % is scaled to controls: 0 for no effect and ±100 for the full control effect
test-parameters: recombinant CYP, pro-luciferin dealkylation, luminescence, p450-cyp3a4; series mostly up to 57.1 µM
Experimental: The P450 gene superfamily is involved in the metabolism and clearance of xenobiotics. This assay used various human CYP P450 isozymes to measure the dealkylation of various pro-luciferin substrates to luciferin. The luciferin is then measured by luminescence after the addition of a luciferase detection reagent. […] Inhibitors and some substrates limit the production of luciferin, and decrease measured luminescence. […] 8, Detection, 1 sec, ViewLux luminescent read […]
Hit rate of the full screen: of about 16,000 compounds, about 5,100 (32%) were called active. About 25% were inconclusive and are not listed. The list shows a part of the results.

{"molecule-smiles": "Oc1cc(O)c2c(c1)O[C@@H](c1ccc(O)c(O)c1)[C@H](O[C@@]1(c3cc(O)c(O)c(O)c3)Oc3cc(O)cc(O)c3[C@H](O)[C@@H]1O)C2", "result": "-19.7% [at 11.4 µM] (inactive)"}
{"molecule-smiles": "CC1(C)[C@@H]2CC[C@]1(C)[C@@H](OC(=O)CSC#N)C2", "result": "-20.6% [at 11.4 µM] (inactive)"}
{"molecule-smiles": "O=C(CCCc1ccccn1)c1ccccc1", "result": "-27.1% [at 11.4 µM] (inactive)"}

QUERY: Report the value of activity, negative = inhibition obtained on Cytochrome P450 3A4 (Homo sapiens) (UniProt P08684) for O=C(C[n+]1cccc(NC(=O)c2ccccc2)c1)c1ccc(NC(=O)c2ccccc2)cc1 .
RESULT: 9.66% [at 2.29 µM] (inactive)

QUERY: Report the value of activity, negative = inhibition obtained on Cytochrome P450 3A4 (Homo sapiens) (UniProt P08684) for CCc1ccc2[nH]c(O)c(N=Nc3nc(-c4ccccc4)cs3)c2c1 .
RESULT: -16.3% [at 2.29 µM] (inactive)
